- Test system: SK-MEL-2 melanoma
- assay.notes: NCI tumour cell line growth inhibition, 48 h; in the data active = GI50 below about 0.43 µM; inactive = the rest
Select the correct class. Options are true (active), false (inactive) and nothing else.

Below are worked cases with known answers.
| molecule.smiles | system.under.test | answer.label |
| --- | --- | --- |
| COc1ccc2nc3cc(Cl)ccc3c(NCCNc3c4ccc(Cl)cc4nc4ccc(OC)cc34)c2c1 | SK-MEL-2 melanoma | false |
| O=C1C(Cl)=C(Nc2cccc(O)c2)C(=O)N1Cc1ccc(Cl)cc1Cl | SK-MEL-2 melanoma | false |
| CC[C@H](C)C(=O)O[C@H]1C[C@H](O)C=C2C=C[C@H](C)[C@H](CC[C@@H](O)C[C@@H](O)CC(=O)O)[C@H]21 | SK-MEL-2 melanoma | false |
| CCN(CC)C(=S)[S][Bi]([S]C(=S)N(CC)CC)[S]C(=S)N(CC)CC | SK-MEL-2 melanoma | true |
| C=C1C(=O)O[C@H]2[C@H]1CC/C(COC(=O)NCc1ccc(Cn3c(=O)sn(-c4ccccc4)c3=O)cc1)=C\CC[C@@]1(C)O[C@@H]21 | SK-MEL-2 melanoma | false |
| CC(=O)c1cc(O)c2ccccc2c1O | SK-MEL-2 melanoma | false |
| CC1(C)C(=O)/C(=C\c2cccnc2)C[C@]2(C)[C@H]3CC[C@@H]4[C@@H](C(=O)/C=C/c5ccncc5)CC[C@@]4(C)[C@]3(C)CC[C@@H]12 | SK-MEL-2 melanoma | false |

Next molecule, please.
# lookup: test call for `COc1cc2c3c(n(C)c(=O)c2cc1OC)-c1cc2c(cc1/C3=C\CCNCCCN)OCO2`
false

###

- Test system: BT-549 breast
- assay.notes: NCI tumour cell line growth inhibition, 48 h
outcome.measure: TGI

| molecule | TGI |
| --- | --- |
| CCOC(=O)C(NC(=O)OC(C)(C)C)C(=O)OCC | > 100 µM |

Could you tell me which TGI is on file for `C[N+](C)(CCNC(=O)c1cccc2cc3ccccc3nc12)Cc1ccc([N+](=O)[O-])s1` ?
> 25 µM

Could you tell me which TGI is on file for `COc1ccc(C2=NN=C3C(c4ccccc4)=Nc4ccccc4N3C2)cc1` ?
> 100 µM

Could you tell me which TGI is on file for O=C1CC2CCC(C1)S2=O (configuration not stated) ?
> 100 µM

Could you tell me which TGI is on file for COc1cc(CS(=O)c2ccc(O)cc2)cc(OC)c1OC (configuration not stated) ?
> 100 µM

###

- Test system: HCC-2998 colon
- assay.notes: NCI tumour cell line growth inhibition, 48 h; in the data active means GI50 below about 0.43 µM; inactive means the rest
Select the correct class. Options are yes for active, no for inactive and nothing else.

| molecule | system.under.test | answer.label |
| --- | --- | --- |
| Oc1ccc(N=Nc2ccccn2)c(O)c1 | HCC-2998 colon | no |
| C=CC(COC(c1ccccc1)(c1ccccc1)c1ccccc1)N(CC)CC (stereo not given) | HCC-2998 colon | no |
| Cc1nc2ccccc2c(/C=C/c2ccc(Cl)cc2)c1C(=O)/C=C/c1ccccc1 | HCC-2998 colon | no |
| CC(=O)c1nc2ccccc2n1CC(=O)c1cccc(Cl)c1 | HCC-2998 colon | no |
| CCN(Cc1c(Cl)cccc1Cl)c1ccc(CO)c(Cl)c1 | HCC-2998 colon | no |
| COc1ccc2ccc3oc([N+](=O)[O-])cc3c2c1 | HCC-2998 colon | yes |
| Cc1cc(I)cc(CN(C)CCCN2CCN(C)CC2)c1O | HCC-2998 colon | no |
| CCSc1ccc(C2C(Br)C(=O)N2c2cc(OC)c(OC)c(OC)c2)cc1 (stereo not given) | HCC-2998 colon | no |
| CC(O)c1cc(C(=O)N[C@@H](C)Cn2ccc(-c3ccc(C#N)c(Cl)c3)n2)n[nH]1 (stereo not given in full) | HCC-2998 colon | no |
| CCC[CH2][Sn]1([CH2]CCC)[O]CC(C)[O]1 (stereo not given) | HCC-2998 colon | no |

Next molecule, please.
# lookup: test call for `COc1ccc(-c2nn(-c3ccc(NC(=O)Nc4ccc(Cl)c(C(F)(F)F)c4)cc3)cc2-c2ccncc2)cc1Cl`
no

###

Catalogue of compounds with associated log10 of TGI
- Tested on: OVCAR-4 ovarian
- assay.notes: NCI tumour cell line growth inhibition, 48 h
Log10 applied to TGI; unit prior to transform: µM.

As a guide, the following entries are already answered.
| compound | log10 of TGI |
| --- | --- |
| CCc1cccc(C)c1NC(=O)CC1C(=O)Nc2ccccc2S1(=O)=O (stereo unspecified) | 1.47 |
| O=C1c2ccccc2C(=O)c2[nH]c(Cc3ccc(F)cc3)nc21 | 1.54 |
| O=[N+]([O-])C(Cl)=C/C(=C(\Cl)SCc1ccccc1)[N+](=O)[O-] | 1.61 |

Could you tell me which log10 of TGI is on file for `Cn1c(O)c(C=Nc2ccccc2Cl)c(=O)n(C)c1=O` ?
1.99

###

- Test system: SF-295 CNS
- assay.notes: NCI tumour cell line growth inhibition, 48 h
outcome.measure: TGI (µM)
Field format: number, assumed µM, no unit text.

| molecule.smiles | system.under.test | TGI, µM |
| --- | --- | --- |
| Cc1ccc(-c2cc(O)c(-c3ccc(C)cc3C)cc2O)c(C)c1 | SF-295 CNS | 36.1 |

Alright, here's another compound for you.
Could you tell me which TGI is on file for `CCN(Cc1c(Cl)cccc1Cl)c1ccc(CO)c(Cl)c1` ?
1.37

###

- Test system: BT-549 breast
- assay.notes: NCI tumour cell line growth inhibition, 48 h
outcome.measure: TGI (µM)
Field format: number, assumed µM, no unit text.

As a guide, the following entries are already answered.
| molecule | outcome.measure | units.text | result.value |
| --- | --- | --- | --- |
| Nc1ncc(-c2cccc(S(N)(=O)=O)c2)c2scc(-c3ccc(F)c(Cl)c3)c12 | TGI | µM | 15.1 |
| CC1(C)C(=O)/C(=C\c2cccnc2)C[C@]2(C)[C@H]3CC[C@@H]4[C@@H](C(=O)/C=C/c5ccncc5)CC[C@@]4(C)[C@]3(C)CC[C@@H]12 | TGI | µM | 3.35 |
| CC(C)=CCCC(C)C1=C(O)C(=O)C(C)=CC1=O (configuration not stated) | TGI | µM | 30.2 |
| C/C(=N\NC(=S)N(C)C)c1ccccn1 | TGI | µM | 9.59 |
| CCOC(=O)/C=C(\C(=O)OCC)n1ccc(=O)[nH]c1=O | TGI | µM | 30.7 |

Could you tell me which TGI is on file for `Cc1ccc([C@]2(C)CC[C@H](C)/C2=C\Br)c(O)c1` ?
19.3

Could you tell me which TGI is on file for `Brc1ccc2c(-c3csc(-c4c[nH]c5ccccc45)n3)c[nH]c2c1` ?
37.4

Could you tell me which TGI is on file for `c1ccc(CN2CCN3CCN(CC2)CCN(Cc2ccccc2)CC3)cc1` ?
17.6

Could you tell me which TGI is on file for `COc1cc2c3c(n(C)c(=O)c2cc1OC)-c1cc2c(cc1/C3=C\CCNCCCN)OCO2` ?
21.1

###

- System: SF-268 CNS
- assay.notes: NCI tumour cell line growth inhibition, 48 h
outcome.measure: TGI

| molecule | TGI |
| --- | --- |
| O=C(CCc1ccc(O)cc1)N/N=C/c1cc(Br)ccc1O | 24.4 µM |
| CCC[C@@H]1C(=O)N=C(N)N1C(=O)OCc1ccccc1 | > 100 µM |
| C[C@@H]1COCCN1c1cc(C2(O)C[C@H]3CC[C@@H](C2)O3)c2cnn(-c3ccn[nH]3)c2n1 (some centres not stated) | 2.04 µM |
| Oc1ccc(N=Nc2ccccn2)c(O)c1 | > 100 µM |
| [N-]=[N+]=Nc1c([N+](=O)[O-])c(=O)n2c3c(cccc13)CCC2 | 21.3 µM |
| O=[N+]([O-])c1ccc(C=NC23CC4CC(CC(C4)C2)C3)cc1 | > 100 µM |
| CC1=NN(c2nc(N)nc(CF)n2)C(C)(C)C1 | > 100 µM |
| Cn1c(=O)c2/c(n(C)c1=O)=N\C=c1\c(=O)n(C)c(=O)n(C)\c1=N\C=2 | > 100 µM |
| C[C@]12CCC(=O)C=C1CC[C@@H]1C2CC[C@]2(C)c3nn(-c4ccccc4)nc3CC12 (some centres not stated) | > 100 µM |
| CC(C)=CC(=O)Cc1nc2ccc([N+](=O)[O-])cc2[nH]c1=O | > 100 µM |

Could you tell me which TGI is on file for `CC1(C)N=C(c2ccccn2)C(c2ccccn2)=NC1(C)C` ?
> 100 µM

Could you tell me which TGI is on file for `C=C(C)CNC(=S)N(N)c1ccc2ccccc2c1` ?
> 100 µM

Could you tell me which TGI is on file for `O=Nc1c(-c2c(O)[nH]c3ccc(Br)cc23)[nH]c2ccccc12` ?
22.6 µM

Could you tell me which TGI is on file for `CCCC(=O)[O-].N.N.N.N.N.[Co+3].[O-][Cl+3]([O-])([O-])[O-]` ?
> 100 µM

Could you tell me which TGI is on file for `O=C(/C=C\c1cccc2ccccc12)c1cccc2ccccc12` ?
22.1 µM

Could you tell me which TGI is on file for `O=C(/C=C\c1ccccc1)N1CCc2ccccc2C1` ?
> 100 µM

Could you tell me which TGI is on file for `[N-]=[N+]=C(C(=O)N1CCCC1=O)S(=O)(=O)c1ccccc1` ?
> 100 µM

Could you tell me which TGI is on file for `O=C1CSc2cc([N+](=O)[O-])ccc2N1` ?
> 100 µM

Could you tell me which TGI is on file for C=CCC(C(=O)Nc1cccc2[nH]cnc12)C(=O)OCC (configuration not stated) ?
> 100 µM

Could you tell me which TGI is on file for `Brc1ccc2c(-c3csc(-c4c[nH]c5ccccc45)n3)c[nH]c2c1` ?
34.5 µM

Could you tell me which TGI is on file for COC(=O)C(C)NC(=O)c1ccccc1I(OS(=O)(=O)C(F)(F)F)c1ccccc1 (configuration not stated) ?
53.2 µM

Could you tell me which TGI is on file for Oc1ccc(Cl)cc1C1=NC(/N=C\c2ccccc2)=NC(c2ccccc2)C1 (configuration not stated) ?
> 100 µM
